- Test system: NCI-H322M lung
- Assay protocol: NCI-60 one-dose screen, 48 h (100 = growth as untreated, 0 = no growth, -100 = all killed)
- Measurement parameters: 10 µM unless noted
Compounds without any hit were thinned out: in the full panel of roughly 83,000, 20% have a hit.
# note: exactly 90% is not below, so it is criterion not met; use criterion met for growth strictly under it

Reference set, count: 2
>>> label_class("O=C(Cn1nnc([N+](=O)[O-])n1)c1ccccc1")
"criterion not met"
>>> label_class("COc1cc(/C=C\\c2cc(/C=C\\c3ccc(O)c(OC)c3)n(C(=O)CNc3ccc(Cl)cc3)n2)ccc1O")
"criterion met"

Now consider the entry below.
## Input Identify whether the molecule "N#Cc1c(NC(=O)c2cccs2)[n+]([O-])c2ccc(Cl)cc2[n+]1[O-]" records growth below 90%.
## Output criterion not met

---

Reported growth values for the following compounds.
- Test system: HS 578T breast
- Assay protocol: NCI-60 one-dose screen, 48 h (100 = growth as untreated, 0 = no growth, -100 = all killed)
- Measurement parameters: 10 µM unless noted
Compounds without any hit were thinned out: in the full panel of roughly 83,000, 20% have a hit.
Answer in %, number only, no unit symbol.

>>> readout_number("O=C1/C(=C/c2ccc(C(F)(F)F)cc2)COc2ccc(O)c(O)c21")
10.4
>>> readout_number("COc1ccc(-c2cc(C(=O)N3N=C(c4ccc(N)cc4)CC3c3ccccc3)c3ccccc3n2)cc1 (stereo not given)")
36.8
>>> readout_number("CCN(CC)CCOc1ccc(Nc2ncc3cc(-c4ccc(O)cc4)c(=O)n(C)c3n2)cc1")
33.5
>>> readout_number("COc1cc2c(c(OC)c1OC)C(=O)N[C@@H]1[C@@H](O)[C@@H](O)[C@H](O)C[C@@H]21")
108

The record that follows has no growth shown yet.
## Input Kindly state the measured growth obtained for "CN1CCN(c2ccc3c(c2)nc(NNC(=O)c2cnccn2)c2cccn23)CC1" with HS 578T breast.
## Output 75.4

---

- Tested on: HCT-15 colon
- Assay protocol: NCI-60 one-dose screen, 48 h
- Measurement parameters: 10 µM unless noted
The panel holds about 83,000 compounds, 20% with a hit somewhere; the sample as a whole holds those more often. The source made the active and inactive calls. Rule for the calls: active = growth percent below 10; inactive = the rest.
Answer with one of the outcomes given here: active, inactive

Reference set, count: 4
>>> label_class("CC(C)[C@@]12C[C@@H](OC(=O)COC(=O)c3ccccc3)[C@@](C)(O1)[C@@H]1CC[C@@H](C)[C@H]1[C@@H]2OC(=O)/C=C/c1ccccc1")
"inactive"
>>> label_class("N#Cc1c(Nc2ccc(F)cc2)n[nH]c1-c1cccs1")
"inactive"
>>> label_class("Nc1c(C(=O)Nc2ccncc2)sc2nc3c(cc12)CCCCC3")
"inactive"
>>> label_class("COc1ccc(/C=C/C(=O)c2cc3c(N)c(C(=O)Nc4ccccc4C)sc3nc2C)cc1")
"inactive"

## Input Lab log entry: COc1cc(OC)cc(C2C(C#N)=C(N)Oc3c2ccc2ccc(O)cc32)c1 (centres undefined) — outcome as called in the assay?
## Output active

## Input Same read-out for CCCCCCC(CCCC)COC(=O)c1ccc(Cl)cc1 (centres undefined) ?
## Output inactive

## Input Same read-out for "N#C/C(=C\c1ccc(Br)cc1)c1cc2ccccc2[nH]1" ?
## Output inactive

## Input Same read-out for "CN(C)c1ccc(/C=C/C(=O)c2ccc(Nc3nc(Nc4ccc(F)cc4)nc(Nc4ccc(Cl)cc4)n3)cc2)cc1" ?
## Output inactive

## Input Same read-out for "CCCCCCCCCCCCCCCCOC(=O)c1c(C)[nH]c(/C=C2\N=C(c3ccc[nH]3)C=C2OC)c1C" ?
## Output inactive

---

- System: SR leukemia
- Assay protocol: NCI-60 one-dose screen, 48 h
- Measurement parameters: 10 µM unless noted
Compounds without any hit were thinned out: in the full panel of roughly 83,000, 20% have a hit. The source made the active and inactive calls. Rule for the calls: active = growth percent below 10; inactive = the rest.
Answer with one of the outcomes given here: active, inactive

Reference set, count: 3
>>> label_class("Cc1ccc(-c2cc(C(=O)N3N=C(c4ccc(N)cc4)CC3c3ccc(Cl)cc3)c3ccccc3n2)cc1 (stereo unspecified)")
"inactive"
>>> label_class("C=CC(C)(O)CC/C=C(\\CO)C(=O)OC1C(C)OC(O[C@](C)(C=C)CC/C=C(\\CO)C(=O)O[C@H]2C[C@@]3(C(=O)OC4OC(CO)C(O)C(O)C4OC4OC(C)C(OC5OC(CO)C(O)C5O)C(OC5OC(CO)C(O)C(O)C5O)C4O)C(CC2(C)C)C2=CCC4[C@@]5(C)CC[C@H](OC6OC(COC7OC(C)C(O)C(O)C7OC7OCC(O)C(O)C7O)C(O)C(O)C6NC(C)=O)C(C)(C)C5CC[C@@]4(C)[C@]2(C)C[C@H]3O)C(O)C1O (stereo partly specified)")
"active"
>>> label_class("O=C(Nc1cccnc1Nc1ccc(Cl)cc1)c1cn(Cc2ccc(F)cc2)nn1")
"inactive"

## Input Lab log entry: "Cc1ncc(C(=O)Nc2ccc(CN3CCN(C)CC3)c(C(F)(F)F)c2)cc1C#Cc1cnc(N)c2ccncc12" — outcome as called in the assay?
## Output active

## Input Same read-out for "N#Cc1nc(-c2ccc(F)cc2)oc1S(=O)(=O)N1CCN(c2ccc(F)cc2)CC1" ?
## Output active

## Input Same read-out for "COc1cc(-c2nc(SCCC(C)C)nc(N3CCOCC3)c2C#N)cc(OC)c1OC" ?
## Output active

---

- System: U251 CNS
- Assay protocol: NCI-60 one-dose screen, 48 h (100 = growth as untreated, 0 = no growth, -100 = all killed)
- Measurement parameters: 10 µM unless noted
The panel holds about 83,000 compounds, 20% with a hit somewhere; the sample as a whole holds those more often.
Recorded metric: growth (%)
Answer in %, number only, no unit symbol.

>>> readout_number("COc1ccc(C2CC(c3ccc4c(c3)OCO4)=Nc3c(N)ncnc3N2)cc1 (stereo not given)")
101

## Input Report growth for "COc1ccc(Cc2nnc(Nc3nc4ccccc4s3)s2)cc1" please.
## Output 98.2

## Input Same read-out for "CS(=O)(=O)Cc1cnc(C2OCCO2)s1" ?
## Output 96.5

## Input Same read-out for Nc1c(C(=O)Nc2ccccn2)sc2nc3c(cc12)C(O)CCC3 (stereo not given) ?
## Output 19

## Input Same read-out for "COc1cc(/C=C/c2cc(/C=C/c3ccc(O)c(OC)c3)n(C(=O)Nc3ccc(F)cc3)n2)ccc1O" ?
## Output 13.4

---

- Tested on: HCT-116 colon
- Assay protocol: NCI-60 one-dose screen, 48 h (100 = growth as untreated, 0 = no growth, -100 = all killed)
- Measurement parameters: 10 µM unless noted
- Experimental: Growth inhibition of the HCT-116 human tumor cell line is measured as a screen for anti-cancer activity. Cells are grown in 96 well plates and exposed to the test compound for 48 hours. Compounds are tested at a single concentration, which is 10^-5 M for most compounds. The reported endpoint is percent growth (GI% or GIPRCNT), where numbers from 0 - 100% represent growth inhibition, and numbers from -100% - 0 represent cell death. For example, a value of 40 represents 60% growth inhibition. […]
Compounds without any hit were thinned out: in the full panel of roughly 83,000, 20% have a hit. Active and inactive are the calls of the source. The calls were made as follows: active = growth percent below 10; inactive = the rest.
Recorded metric: growth

See these solved cases before continuing.
>>> result("COc1ccc2c(c1)c(-c1nonc1-c1c[nH]c3ccc(Br)cc13)cn2C")
"31.6% (inactive)"
>>> result("COc1ccc(-c2ccc(-c3ccc(C(=N)N)cn3)s2)cc1")
"-20.8% (active)"
>>> result("CN(C)c1ccc(-c2cc(-c3ccc(Nc4nc(Nc5ccc(Cl)cc5)nc(Nc5ccc(Cl)cc5)n4)cc3)nc(N)c2C#N)cc1")
"60.5% (inactive)"

## Input Report growth for "COc1cc(/C=C\c2cc(/C=C\c3ccc(O)c(OC)c3)n(C(=O)CNc3ccc(Cl)cc3)n2)ccc1O" please.
## Output 7.69% (active)

## Input Same read-out for C=CC1(C)C(O[Si](C)(C)C(C)(C)C)CC2C3OC(=O)NC31c1cccc3c1[C@H](C(=O)N3C)C2(C)C (stereo partly specified) ?
## Output 38.6% (inactive)

## Input Same read-out for "CCOC(=O)c1c2c(n3c1NCC3)-c1ccccc1C2=O" ?
## Output 103% (inactive)

---

- Test system: SNB-19 CNS
- Assay protocol: NCI-60 one-dose screen, 48 h (100 = growth as untreated, 0 = no growth, -100 = all killed)
- Measurement parameters: 10 µM unless noted
Compounds without any hit were thinned out: in the full panel of roughly 83,000, 20% have a hit.
Reported growth values for the following molecules.
Answer in %, number only, no unit symbol.

>>> readout_number("COc1cc2c(c(OC)c1OC)C(=O)CC(c1cccc(NC(=O)c3ccccc3Br)c1)O2 (stereo not given)")
95.5

The record that follows has no growth shown yet.
## Input Report growth for "Cc1ccc2nc(Cl)c(Cn3nnnc3SCc3ccccc3)cc2c1" please.
## Output 98.8
